Test system: HEK-293T
Assay: Multiplex assay against HEK293T
Assay type: toxicity, cell-based
Conditions: human, 24 h, 1 µM, compound concentration 1 uM, replicate 1
parameter: Population Pyknosed Nuclei (%)
Reply numerically in %, unit not repeated.

Entry COc1cc(C(=O)N2CC[C@@H](O)[C@@H](N)C2)cc2nc(-c3cc4ccccc4n3CC3CC3)n(C)c12.Cl ; Population Pyknosed Nuclei (%) = 13

Entry Cc1sc2c(c1C)C(c1ccc(Cl)cc1)=N[C@H](CC(=O)OC(C)(C)C)c1nnc(C)n1-2 ; Population Pyknosed Nuclei (%) = 13

Entry Cc1ccc(OCC(O)C(C)NC(C)C)c2c1CCC2.Cl (centres undefined) ; Population Pyknosed Nuclei (%) = 12

Entry COC(c1ccccc1)(c1ccccc1)[C@H](Oc1nc(C)cc(C)n1)C(=O)O ; Population Pyknosed Nuclei (%) = 14

Entry C=CCN1C[C@H](C(=O)N(CCCN(C)C)C(=O)NCC)C[C@@H]2c3cccc4[nH]cc(c34)C[C@H]21 ; Population Pyknosed Nuclei (%) = 10

Entry COCCCN1CCC(NC(=O)c2cc(Cl)c(N)c3c2OCC3)CC1 [PRUCALOPRIDE] ; Population Pyknosed Nuclei (%) = 10

Entry CCn1c(-c2nc3cc(C(=O)N4CCCC(N)C4)ccc3n2C)cc2ccccc21.Cl (centres undefined) ; Population Pyknosed Nuclei (%) = 10

Entry Nc1nc(CC(=O)Nc2ccc(CCNC[C@H](O)c3ccccc3)cc2)cs1 ; Population Pyknosed Nuclei (%) = 9

Entry C[C@@H]1CC(=O)Nc2cccc(-c3ccc4c(c3)c(-c3cnn(C)c3)nn4C)c2N1 ; Population Pyknosed Nuclei (%) = 14

Entry CSc1nc(NC2CCCC2)c([N+](=O)[O-])c(NC2CCCC2)n1 ; Population Pyknosed Nuclei (%) = 11

Entry S=C(NCCCc1c[nH]cn1)NCCCN(Cc1ccc(Cl)c(Cl)c1)c1ccc(Br)cn1 ; Population Pyknosed Nuclei (%) = 16

Entry CC(C)(O)C(=O)N1CCN(c2ccc(C(F)(F)F)c(C3=C(c4c[nH]c5ccccc45)C(=O)NC3=O)c2)CC1 ; Population Pyknosed Nuclei (%) = 17

Entry CCCCCCNC(=O)Nc1ccc(S(=O)(=O)Nc2ccc(CCNC[C@H](O)COc3ccc(O)cc3)cc2)cc1 ; Population Pyknosed Nuclei (%) = 9

Entry Cc1cc(NC(=O)NCCN2CCC(O)(Cc3ccccc3)CC2)c2ccccc2n1 ; Population Pyknosed Nuclei (%) = 11

Entry COc1ccc2c(c1OCc1ccccc1)C[C@@H](C(=O)O)N(C(=O)C(c1ccccc1)c1ccccc1)C2 ; Population Pyknosed Nuclei (%) = 10

Entry Cc1c(Cc2ccc3ccccc3n2)c2cc(F)ccc2n1CC(=O)O ; Population Pyknosed Nuclei (%) = 8

Entry CN1C[C@H](C(=O)N[C@]2(C)O[C@@]3(O)[C@@H]4CCCN4C(=O)[C@H](Cc4ccccc4)N3C2=O)C[C@@H]2c3cccc4[nH]cc(c34)C[C@H]21.CS(=O)(=O)O [DIHYDROERGOTAMINE MESYLATE] ; Population Pyknosed Nuclei (%) = 9

Entry COc1cc2nc(N3CCN(C(=O)COc4c(OC)cccc4C(C)C)CC3)nc(N)c2cc1OC.Cl.Cl ; Population Pyknosed Nuclei (%) = 10

Entry O=C(O)CCC/C=C\CC1C(O)CC(O)C1/C=C/C(O)COc1cccc(Cl)c1 (centres undefined) ; Population Pyknosed Nuclei (%) = 11

Entry N[C@](CC1c2ccccc2Oc2ccccc21)(C(=O)O)[C@H]1C[C@@H]1C(=O)O ; Population Pyknosed Nuclei (%) = 10

Entry CCc1nn2c(C)cc(C)nc2c1Cc1ccc(-c2nnc(C3CCNCC3)o2)cc1 ; Population Pyknosed Nuclei (%) = 13

Entry CN(C)C(=O)Cn1cc(-c2ccc(-c3nnc4ccccn34)cc2)cn1 ; Population Pyknosed Nuclei (%) = 12

Entry C[C@H](NC(=O)CNC(=O)c1cccc(Cl)c1)c1ccccc1 ; Population Pyknosed Nuclei (%) = 10

Entry O=C(Nc1cc(-c2ccccc2)nn1-c1ccccc1F)c1ccc([N+](=O)[O-])cc1 ; Population Pyknosed Nuclei (%) = 12

Entry CN1CCN(c2ccc(Nc3c4ccccc4nc4ccccc34)cc2)CC1.Cl.Cl.O ; Population Pyknosed Nuclei (%) = 5

Entry Nc1nc(-c2ccco2)c2cnn(Cc3ccccc3F)c2n1 ; Population Pyknosed Nuclei (%) = 15

Entry COc1c(Nc2ccc(S(C)(=O)=O)nc2C)ncnc1OC1CCN(C(=O)OC(C)C)CC1 ; Population Pyknosed Nuclei (%) = 11

Entry CC(C)C[C@H](CO)Nc1nc(S[C@@H](C)c2ccccc2)nc2nc(N)sc12 ; Population Pyknosed Nuclei (%) = 15

Entry CCC(=O)OCC(=O)[C@@]1(OC(=O)CC)[C@@H](C)C[C@H]2[C@@H]3CCC4=CC(=O)C=C[C@]4(C)[C@@]3(Cl)[C@@H](O)C[C@@]21C [BECLOMETHASONE DIPROPIONATE] ; Population Pyknosed Nuclei (%) = 11

Entry OCCCNc1cc(-c2ccnc(Nc3cccc(Cl)c3)n2)ccn1 ; Population Pyknosed Nuclei (%) = 22

Entry Cn1cc(C(=O)OCC2CCN(CCNS(C)(=O)=O)CC2)c2ccccc21 ; Population Pyknosed Nuclei (%) = 10

Entry Cc1cc(=O)n(C)c2cc(N3C(=O)CC[C@H](NS(=O)(=O)CC(C)C)[C@H]3c3ccc(Cl)cc3)ccc12 ; Population Pyknosed Nuclei (%) = 9

Entry Cc1cc(-c2ccc3c(c2)CC[C@H]3N2CC3(CCN(C(=O)Cc4cn5cc(C)sc5n4)CC3)C2)ncn1 ; Population Pyknosed Nuclei (%) = 13

Entry Cl.Cl.OCCOCCN1CCN(C(c2ccccc2)c2ccc(Cl)cc2)CC1 (centres undefined) [HYDROXYZINE HYDROCHLORIDE] ; Population Pyknosed Nuclei (%) = 11
